Where do these numbers come from? They come from patent US12435046B2.

Exercise: state measured IC50 for each of the molecules provided.
target: EGFR wt (Homo sapiens); construct: expressed in transfected cells; host or cells: BaF3 (murine pro-B) cells, retroviral transduction with pMXs-IRES-Blasticidin; experiment: BaF3 cell proliferation assay (CellTiterGlo), EGFR wt; assay type: cell-based; conditions: Table A; BaF3 cells, 3 days
Sequence (P00533 25-1210): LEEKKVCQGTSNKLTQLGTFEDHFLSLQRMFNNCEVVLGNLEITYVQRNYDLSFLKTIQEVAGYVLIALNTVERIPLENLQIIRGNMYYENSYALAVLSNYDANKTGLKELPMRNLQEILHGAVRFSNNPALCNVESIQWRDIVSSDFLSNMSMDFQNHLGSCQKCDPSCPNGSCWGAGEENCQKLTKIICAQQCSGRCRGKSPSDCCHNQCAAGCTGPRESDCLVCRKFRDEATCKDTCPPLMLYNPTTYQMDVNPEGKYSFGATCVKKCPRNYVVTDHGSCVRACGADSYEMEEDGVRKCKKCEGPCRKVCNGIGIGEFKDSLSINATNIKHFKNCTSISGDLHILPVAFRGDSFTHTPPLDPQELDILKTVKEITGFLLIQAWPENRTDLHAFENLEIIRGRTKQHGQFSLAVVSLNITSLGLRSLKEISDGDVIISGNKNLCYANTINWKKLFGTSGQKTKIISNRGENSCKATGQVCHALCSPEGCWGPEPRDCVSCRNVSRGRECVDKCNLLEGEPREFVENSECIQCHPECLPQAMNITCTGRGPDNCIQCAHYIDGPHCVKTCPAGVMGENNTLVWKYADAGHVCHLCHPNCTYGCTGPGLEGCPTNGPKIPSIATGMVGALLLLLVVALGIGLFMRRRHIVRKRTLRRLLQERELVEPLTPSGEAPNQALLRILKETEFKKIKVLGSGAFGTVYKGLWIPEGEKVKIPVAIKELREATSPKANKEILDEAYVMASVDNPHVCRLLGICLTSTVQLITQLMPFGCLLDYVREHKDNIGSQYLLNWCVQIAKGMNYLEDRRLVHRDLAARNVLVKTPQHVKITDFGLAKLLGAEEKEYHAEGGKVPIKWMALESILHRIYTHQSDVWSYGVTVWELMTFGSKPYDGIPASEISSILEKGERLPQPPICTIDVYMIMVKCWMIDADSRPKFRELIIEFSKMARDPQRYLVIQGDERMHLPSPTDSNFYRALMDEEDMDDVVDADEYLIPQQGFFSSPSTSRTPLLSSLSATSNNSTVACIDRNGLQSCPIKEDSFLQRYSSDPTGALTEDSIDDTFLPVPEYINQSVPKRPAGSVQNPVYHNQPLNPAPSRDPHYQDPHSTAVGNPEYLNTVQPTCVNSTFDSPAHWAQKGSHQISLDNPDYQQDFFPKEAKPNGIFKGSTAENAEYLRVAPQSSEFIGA

Please report the measured IC50 for CN1C[C@H]2C[C@@]2(C#Cc2cc3ncnc(Nc4cccc(Cl)c4F)c3cc2NC(=O)C(F)Cl)C1 (stereo partly shown)
50 to 100 nM

Please report the measured IC50 for C/C=C/C(=O)Nc1cc2c(Nc3cccc(Cl)c3F)ncnc2cc1C#C[C@@]1(C)CCN(C)C1
100 to 500 nM

Please report the measured IC50 for CC#CC(=O)Nc1cc2c(Nc3cccc(Cl)c3F)ncnc2cc1C#C[C@@]12C[C@@H]1CN(C)C2
50 to 100 nM

Please report the measured IC50 for C=CC(=O)Nc1cc2c(Nc3cccc(Cl)c3F)ncnc2cc1C#C[C@@H]1[C@H]2CN(C)C[C@@H]12
≤ 50 nM

Please report the measured IC50 for C=CC(=O)Nc1cc2c(Nc3cccc(Cl)c3F)ncnc2cc1C#CC1(C)CCN(CC(F)(F)F)C1 (stereo not shown)
> 500 nM

Please report the measured IC50 for C=CC(=O)Nc1cc2c(Nc3cccc(Cl)c3F)ncnc2cc1C#C[C@@]12C[C@@H]1CN(C)C2
50 to 100 nM

Please report the measured IC50 for C=CC(=O)Nc1cc2c(Nc3cccc(Cl)c3F)ncnc2cc1C#CC1(C)CCN(CCF)C1 (stereo not shown)
100 to 500 nM
